Assay: Plasma pharmacokinetics of 2-pyridylacetic acid after betahistine hydrochloride (LC/MS/MS)
Conditions: human, plasma, 100 mg, Cmax, plasma, after 100 mg betahistine hydrochloride, mean ± SD
ASSAY_ENDPOINT: Cmax (ng/mL)
Give just the number in ng/mL; leave the unit off.

For this compound ( O=C(O)Cc1ccccn1 [2-pyridylacetic acid] ), measured Cmax is 1040

====

Assay: Plasma pharmacokinetics of 2-pyridylacetic acid after betahistine hydrochloride (LC/MS/MS)
Details: human, plasma, 50 mg, Cmax, plasma, after 50 mg betahistine hydrochloride, mean ± SD
ASSAY_ENDPOINT: Cmax (ng/mL)
Give just the number in ng/mL; leave the unit off.

For this molecule ( O=C(O)Cc1ccccn1 ), measured Cmax is 611

====

Assay: Plasma pharmacokinetics of 2-pyridylacetic acid after betahistine hydrochloride (LC/MS/MS)
Conditions: human, plasma, 50 mg
ASSAY_ENDPOINT: AUC(0-t) (ng·h/mL)
Give just the number in ng·h/mL; leave the unit off.

For this compound ( O=C(O)Cc1ccccn1 ), measured AUC(0-t) is 1300

====

Test: Plasma pharmacokinetics of 2-pyridylacetic acid after betahistine hydrochloride (LC/MS/MS)
Conditions: human, plasma, 50 mg
ASSAY_ENDPOINT: half-life (h)
Give just the number in h; leave the unit off.

For this compound ( O=C(O)Cc1ccccn1 ), measured half-life is 4.24

====

Test: Plasma pharmacokinetics of 2-pyridylacetic acid after betahistine hydrochloride (LC/MS/MS)
Conditions: human, plasma, 100 mg
ASSAY_ENDPOINT: half-life (h)
Give just the number in h; leave the unit off.

For this molecule ( O=C(O)Cc1ccccn1 ), measured half-life is 3.74

====

Test: Plasma pharmacokinetics of 2-pyridylacetic acid after betahistine hydrochloride (LC/MS/MS)
Details: human, plasma, 100 mg
ASSAY_ENDPOINT: AUC(0-t) (ng·h/mL)
Give just the number in ng·h/mL; leave the unit off.

For this compound ( O=C(O)Cc1ccccn1 ), measured AUC(0-t) is 2780

====

Assay: Plasma pharmacokinetics of 2-pyridylacetic acid after betahistine hydrochloride (LC/MS/MS)
Conditions: human, plasma, 200 mg
ASSAY_ENDPOINT: half-life (h)
Give just the number in h; leave the unit off.

For this molecule ( O=C(O)Cc1ccccn1 ), measured half-life is 3.88

====

Experiment: Plasma pharmacokinetics of 2-pyridylacetic acid after betahistine hydrochloride (LC/MS/MS)
Conditions: human, plasma, 100 mg
ASSAY_ENDPOINT: Tmax (h)
Give just the number in h; leave the unit off.

For this compound ( O=C(O)Cc1ccccn1 [2-pyridylacetic acid] ), measured Tmax is 1.3
